PROTOCOL SUMMARY: chemical genetic growth profiling, strain panel (AID 1159580);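 further: tested at 20 µM; growth read once vehicle control cultures reached saturation at 30 °C; 1 = growth at the plate median or of vehicle wells; lower values mean less growth of the strain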
EXPERIMENTAL PARAMETERS: S. cerevisiae deletion strains, growth OD, locus YGL173C, strain kem1
Screen size: about 5,500 compounds; about 2,000 (36%) were called active. Another 18% or so got no clear call; they are omitted. No stated cut-off is given here; in the data, active means normalized growth mostly below about 0.91 (no sharp cut-off); inconclusive means no clear call, values can overlap the other calls; inactive means mostly above about 0.92. This is one part of the list.
Mark one answer only. Choices: 1 (active), -1 (inactive)

Examples from the recorded data:
{"SMILES STRING": "CC1=C(O)C(=O)C=C2C1=CC=C1[C@@]2(C)CC[C@@]2(C)[C@@H]3C[C@](C)(C(=O)O)CC[C@]3(C)CC[C@]12C", "CLASS": 1}
{"SMILES STRING": "COC(=O)[C@]1(C)CC[C@]2(C)CC[C@]3(C)C4=CC=C5C(=CC(=O)C(O)=C5C)[C@]4(C)CC[C@@]3(C)[C@@H]2C1", "CLASS": 1}
{"SMILES STRING": "CN(C)CCc1c[nH]c2ccc(C[C@H]3COC(=O)N3)cc12", "CLASS": -1}

Q: Outcome? CN(C)CCc1c[nH]c2ccc(CS(=O)(=O)N3CCCC3)cc12
Result: -1

###

PROTOCOL SUMMARY: chemical genetic growth profiling, strain panel (AID 1159580)
EXPERIMENTAL PARAMETERS: S. cerevisiae deletion strains, growth OD, locus YDR502C, strain sam2
In all, about 5,500 compounds went through this assay and about 2,000 (36%) were called active. Not shown: some 18% with an inconclusive outcome. Rule as the data show it: active = normalized growth mostly below about 0.91 (no sharp cut-off); inconclusive = no clear call, values can overlap the other calls; inactive = mostly above about 0.92. This is one part of the list.
Mark one answer only. Choices: active, inactive

Examples from the recorded data:
{"MOLECULE": "CC(=O)OCC(=O)[C@@]1(O)CCC2C3CC[C@@H]4C[C@H](OC(C)=O)CC[C@]4(C)C3C(=O)C[C@@]21C (stereo not given in full)", "CLASS": "inactive"}
{"MOLECULE": "COc1cc(O)cc(OC)c1OC", "CLASS": "inactive"}
{"MOLECULE": "CC(=O)O[C@H]1CC[C@]2(C)C3CC[C@@]4(C)C(CC5O[C@@]6(CCC(C)CO6)[C@@H](C)C54)C3CC[C@H]2C1 (stereo not given in full)", "CLASS": "inactive"}
{"MOLECULE": "C1CCC(C(CC2CCCCN2)C2CCCCC2)CC1 (stereo not given)", "CLASS": "active"}

Q: Outcome? COP(=O)(OC)OC(Br)C(Cl)(Cl)Br (stereo not given)
Result: inactive

###

PROTOCOL SUMMARY: chemical genetic growth profiling, strain panel (AID 1159580)
EXPERIMENTAL PARAMETERS: S. cerevisiae deletion strains, growth OD, locus YCL069W, strain vba3, active compounds read low
About 2,000 (36%) of roughly 5,500 compounds were called active. Inconclusive results (about 18%) are left out. The list shows a part of the results.
Known normalized growth of a selection of molecules
Answer with a bare number; do not write a unit.

These recorded examples may help you get a feel for the data.
{"MOLECULE": "CCOc1ccc(C(=O)c2cc(O)c(OC)c(OC)c2O)cc1", "normalized growth": 0.997}
{"MOLECULE": "c1ccc([C@H]2CN3CCSC3=N2)cc1", "normalized growth": 1}

Q: Fill in: normalized growth of CCOc1ccc(C(=O)c2ccc(O)c(O)c2O)cc1 is ___
Result: 0.96

Q: Fill in: normalized growth of CC1=CC2C(C(C)C)CCC(C)(O)C2CC1 (stereo unspecified) is ___
Result: 0.981

Q: Fill in: normalized growth of COc1ccc(C(=O)c2ccc(O)cc2)c(O)c1O is ___
Result: 0.98

Q: Fill in: normalized growth of CC(=O)OCC(=O)[C@@]1(O)CCC2C3CCC4=CC(=O)CC[C@]4(C)C3[C@@H](O)C[C@@]21C (stereo partly specified) is ___
Result: 1

###

PROTOCOL SUMMARY: chemical genetic growth profiling, strain panel (AID 1159580);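 further: tested at 20 µM; growth read once vehicle control cultures reached saturation at 30 °C; 1 = growth at the plate median or of vehicle wells; lower values mean less growth of the strain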
EXPERIMENTAL PARAMETERS: S. cerevisiae deletion strains, growth OD, locus YFR010W, strain ubp6, active compounds read low
Screen size: about 5,500 compounds; about 2,000 (36%) were called active. Roughly 18% stayed inconclusive and do not appear here. This is one part of the list. Where a SMILES comes first, the peptide text is derived from it. Bridges are numbered along the chain shown (N, C = ends). [ ]: non-standard residue; d: D form. The star is where a group is joined. Octanoyl(6-Me) = CCC(C)CCCCC(=O)*; Orn = NCCC[CH](N)C(=O)O; Dab = NCC[CH](N)C(=O)O
Known normalized growth of a selection of compounds
Answer with a bare number; do not write a unit.

{"COMPOUND": "O=C(O)[C@H](O)[C@@](O)(Cc1ccc(O)cc1)C(=O)O", "MEASURED RESULT": 1.01}

Q: Fill in: normalized growth of CC(C)CC1NC(=O)C(CCCN)NC(=O)C(C(C)C)NC(=O)C2CCCN2C(=O)C(Cc2ccccc2)NC(=O)C(CC(C)C)NC(=O)C(CCCN)NC(=O)C(C(C)C)NC(=O)C2CCCN2C(=O)C(Cc2ccccc2)NC1=O (stereo not drawn) (cyclo(FPV[Orn]LFPV[Orn]L); configuration not given here) is ___
Result: 1.01

Q: Fill in: normalized growth of CCC(C)CCCCC(=O)NC(CCN)C(=O)NC(C(=O)NC(CCN)C(=O)NC1CCNC(=O)C(C(C)O)NC(=O)C(CCN)NC(=O)C(CCN)NC(=O)C(CC(C)C)NC(=O)C(Cc2ccccc2)NC(=O)C(CCN)NC1=O)C(C)O (stereo not drawn) ({Octanoyl(6-Me)}-[Dab]T[Dab][Dab][Dab]FL[Dab][Dab]T; lactam 4-C; configuration not given here) is ___
Result: 0.999

###

PROTOCOL SUMMARY: chemical genetic growth profiling, strain panel (AID 1159580);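 further: tested at 20 µM; growth read once vehicle control cultures reached saturation at 30 °C; 1 = growth at the plate median or of vehicle wells; lower values mean less growth of the strain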
EXPERIMENTAL PARAMETERS: S. cerevisiae deletion strains, growth OD, locus YNL209W, strain ssb2
Among all 5,500 compounds or so, about 2,000 (36%) were called active. About 18% were inconclusive and are not listed. No stated cut-off is given here; in the data, active means normalized growth mostly below about 0.91 (no sharp cut-off); inconclusive means no clear call, values can overlap the other calls; inactive means mostly above about 0.92. Some of the results follow.
Mark one answer only. Choices: active, inactive

{"COMPOUND": "Cc1cc(=O)n(-c2ccccc2)n1C", "CLASS": "inactive"}

Q: Outcome? CC(=O)OC[C@H]1O[C@@H](Oc2cc(OC(C)=O)c3c(=O)cc(-c4ccc(OC(C)=O)cc4)oc3c2)[C@H](OC(C)=O)[C@@H](OC(C)=O)[C@@H]1OC(C)=O
Result: inactive

Q: Outcome? CCOc1ccc(C(=O)c2cc(O)c(OC)c(OC)c2O)cc1
Result: inactive

Q: Outcome? CCCCCCCCCCCCCCCCCCOCC(O)CO (stereo not drawn)
Result: inactive

Q: Outcome? O=c1[nH]cnc2c1ncn2C1O[C@H](CO)[C@@H](O)[C@H]1O (stereo partly drawn)
Result: inactive

Q: Outcome? C=C(C)[C@H]1Cc2c(ccc3c2O[C@@H]2COc4cc(OC)c(OC)cc4[C@@H]2C3=O)O1
Result: inactive

###

Known normalized growth of a selection of molecules
PROTOCOL SUMMARY: chemical genetic growth profiling, strain panel (AID 1159580);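 further: tested at 20 µM; growth read once vehicle control cultures reached saturation at 30 °C; 1 = growth at the plate median or of vehicle wells; lower values mean less growth of the strain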
EXPERIMENTAL PARAMETERS: S. cerevisiae deletion strains, growth OD, locus YLR330W, strain CHS5, active compounds read low
The whole screen tested about 5,500 compounds, of which about 2,000 (36%) were called active. Another 18% or so got no clear call; they are omitted. The list shows a part of the results. Where a SMILES comes first, the peptide text is derived from it. Side-chain parts run from the residue outwards. [ ]: non-standard residue; d: D form. The star is where a group is joined. X1 = CCC(C)C(N)C1=NC(C(=O)*)CS1; Orn = NCCC[CH](N)C(=O)O
Answer with a bare number; do not write a unit.

These recorded examples may help you get a feel for the data.
{"MOLECULE": "NCCc1c[nH]c2ccccc12", "normalized growth": 0.973}
{"MOLECULE": "C=C(C)[C@@H]1CC[C@]2(CO)CC[C@]3(C)[C@H](CCC4[C@@]5(C)CC[C@H](O)C(C)(C)C5CC[C@]43C)C12 (stereo partly specified)", "normalized growth": 1}
{"MOLECULE": "CC1(C)C=Cc2cc3ccc(=O)oc3cc2O1", "normalized growth": 0.984}
{"MOLECULE": "C#C[C@]1(O)CCC2C3CCC4=Cc5oncc5C[C@]4(C)C3CC[C@@]21C (stereo partly specified)", "normalized growth": 0.902}
{"MOLECULE": "CO[C@H]1C[C@H](O[C@H]2[C@H](C)[C@@H](OC3O[C@H](C)C[C@H](N(C)C)[C@H]3OC(C)=O)[C@@H](C)C[C@]3(CO3)C(=O)[C@H](C)[C@@H](OC(C)=O)[C@@H](C)[C@@H](C)OC(=O)[C@@H]2C)O[C@@H](C)[C@@H]1OC(C)=O (stereo partly specified)", "normalized growth": 1}

Q: Fill in: normalized growth of CCC(C)C(N)C1=NC(C(=O)NC(CC(C)C)C(=O)NC(CCC(=O)O)C(=O)NC(C(=O)NCCCCC2NC(=O)C(CC(N)=O)NC(=O)C(CC(=O)O)NC(=O)C(Cc3cnc[nH]3)NC(=O)C(Cc3ccccc3)NC(=O)C(C(C)CC)NC(=O)C(CCCN)NC2=O)C(C)CC)CS1 (stereo not drawn) (cyclo(DNK([Ile-Glu-Leu-X1])[Orn]IFH); configuration not given here) is ___
Result: 1.01
